- experimentalTarget: T1, soluble CD4 (human, UniProt P01730 26-396, limits assumed)
- T1 construct: The assay paragraph says only 'soluble CD4'
- assayComment: competitive ELISA, inhibition of biotinylated mB-F5 binding to coated soluble CD4, 37 °C 2 hours
observationType: Relative binding activity (% of mB-F5)

Worked cases, Relative binding activity (% of mB-F5) given:
Suppose we examine the binder humanized B-F5 H37L/L4L (antibody, V domains shown, expressed in Sp2/0, purified on protein A; also called H37L/L4L IgG1; hB-F5) VH: EEQLVESGGGLVKPGGSLRLSCAASGFSFSDCRMYWLRQAPGKGLEWIGVISVKSENYGANYAESVRGRFTISRDDSKNTVYLQMNSLKTEDTAVYYCSASYYRYDVGAWFAYWGQGTLVTVSS VL: DIVLTQSPDSLAVSLGERATINCRASKSVSTSGYSYIYWYQQKPGQPPKLLIYLASILESGVPDRFSGSGSGTDFTLTISSLQAEDVAVYYCQHSRELPWTFGQGTKVEIK ; what Relative binding activity (% of mB-F5) value has been reported? 30 % of mB-F5

Same lookup for humanized B-F5 H37L/L4M IgG1 (BT061) (antibody, V domains shown, also called hB-F5; humanised B-F5) VH: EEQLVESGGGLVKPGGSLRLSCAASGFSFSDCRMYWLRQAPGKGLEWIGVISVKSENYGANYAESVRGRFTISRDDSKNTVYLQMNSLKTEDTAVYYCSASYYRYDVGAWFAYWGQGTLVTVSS VL: DIVMTQSPDSLAVSLGERATINCRASKSVSTSGYSYIYWYQQKPGQPPKLLIYLASILESGVPDRFSGSGSGTDFTLTISSLQAEDVAVYYCQHSRELPWTFGQGTKVEIK , please. 30 % of mB-F5

Another: humanized B-F5 H37V/L4L (antibody, V domains shown, also called hB-F5) VH: EEQLVESGGGLVKPGGSLRLSCAASGFSFSDCRMYWVRQAPGKGLEWIGVISVKSENYGANYAESVRGRFTISRDDSKNTVYLQMNSLKTEDTAVYYCSASYYRYDVGAWFAYWGQGTLVTVSS VL: DIVLTQSPDSLAVSLGERATINCRASKSVSTSGYSYIYWYQQKPGQPPKLLIYLASILESGVPDRFSGSGSGTDFTLTISSLQAEDVAVYYCQHSRELPWTFGQGTKVEIK 10 % of mB-F5

Now consider the entry below.
I am curious: what Relative binding activity (% of mB-F5) value has been reported for humanized B-F5 H37V/L4M (antibody, V domains shown, also called hB-F5) VH: EEQLVESGGGLVKPGGSLRLSCAASGFSFSDCRMYWVRQAPGKGLEWIGVISVKSENYGANYAESVRGRFTISRDDSKNTVYLQMNSLKTEDTAVYYCSASYYRYDVGAWFAYWGQGTLVTVSS VL: DIVMTQSPDSLAVSLGERATINCRASKSVSTSGYSYIYWYQQKPGQPPKLLIYLASILESGVPDRFSGSGSGTDFTLTISSLQAEDVAVYYCQHSRELPWTFGQGTKVEIK ? 10 % of mB-F5
